experiment: Rat pharmacokinetics; assay type: in vivo; conditions: Sprague-Dawley, plasma, SD rats, IV 1 mg/kg, C0 by extrapolation

{"compoundString": "O=C(O)CCn1cccc(-c2cc(NCc3ccc(Cl)s3)n(C(=O)c3ccoc3)n2)c1=O", "u": "ng/mL", "C0": 4600}
{"compoundString": "CC(C)(C)C(=O)n1nc(-c2cccn(CCCC(=O)O)c2=O)cc1NCc1ccc(Cl)s1", "u": "ng/mL", "C0": 5400}
{"compoundString": "CC(C)(C)C(=O)n1nc(-c2cccn(CC(=O)O)c2=O)cc1NCc1ccc(Cl)s1", "u": "ng/mL", "C0": 12000}
{"compoundString": "CC(C)(C)C(=O)n1nc(-c2cccn(CCC(=O)O)c2=O)cc1NCc1ccc(Cl)s1", "u": "ng/mL", "C0": 6500}
{"compoundString": "O=C(O)CCn1cccc(-c2cc(NCc3ccc(Cl)s3)[nH]n2)c1=O", "u": "ng/mL", "C0": 5600}
{"compoundString": "CC(C)(N)Cn1cccc(-c2cc(NCc3ccc(Cl)s3)n(C(=O)c3ccoc3)n2)c1=O", "u": "ng/mL", "C0": 94}
{"compoundString": "CCC(C)(C)C(=O)n1nc(-c2cccn(CCC(=O)O)c2=O)cc1NCc1ccc(Cl)s1", "u": "ng/mL", "C0": 6100}

Origin of values: patent US11865110B2
